Where do these numbers come from? They come from ChEMBL document CHEMBL1125419.

Provide the reported pKi of each item.
# Target or system: Mu-type opioid receptor (Rattus norvegicus)
# Sequence (P33535 whole entry): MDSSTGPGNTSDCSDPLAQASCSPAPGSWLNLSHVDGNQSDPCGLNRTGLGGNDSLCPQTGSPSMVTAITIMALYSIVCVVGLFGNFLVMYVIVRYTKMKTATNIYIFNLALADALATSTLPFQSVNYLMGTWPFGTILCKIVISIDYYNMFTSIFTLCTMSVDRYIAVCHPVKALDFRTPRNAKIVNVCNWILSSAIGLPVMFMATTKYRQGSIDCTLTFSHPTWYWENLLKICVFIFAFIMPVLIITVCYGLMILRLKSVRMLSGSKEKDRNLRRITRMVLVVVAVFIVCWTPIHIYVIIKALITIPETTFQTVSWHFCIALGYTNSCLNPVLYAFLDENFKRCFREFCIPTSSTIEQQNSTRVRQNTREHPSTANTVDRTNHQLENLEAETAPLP
# Measurement description: Inhibition of [3H]DAGO binding to rat Opioid receptor mu 1
Answers are plain numbers, as −log10 of the molar value.

Given smiles	Endpoint	Measured value
CSCC[C@H](NC(=O)[C@H](CC(C)C)NC(=O)[C@H](Cc1ccccc1)NC(=O)[C@@H](CCSC)NC(=O)[C@@H](N)Cc1ccc(O)cc1)C(=O)N[C@H](CC(=O)O)C(N)=O	pKi	6.57

Give pKi for each listed item.
1. CSCC[C@H](NC(=O)[C@H](CC(C)C)NC(=O)[C@@H](Cc1ccccc1)NC(=O)[C@@H](CCSC)NC(=O)[C@@H](N)Cc1ccc(O)cc1)C(=O)N[C@@H](CC(=O)O)C(N)=O
2. CSCC[C@@H](NC(=O)[C@H](CC(C)C)NC(=O)[C@H](Cc1c[nH]cn1)NC(=O)[C@H](Cc1ccccc1)NC(=O)[C@@H](CCSC)NC(=O)[C@@H](N)Cc1ccc(O)cc1)C(=O)N[C@@H](CC(=O)O)C(N)=O

stdout:
1: 5.65; 2: 6.84

Please give pKi, item by item, for the list that follows.
1. CSCC[C@H](NC(=O)[C@@H](CC(C)C)NC(=O)[C@H](Cc1c[nH]cn1)NC(=O)[C@H](Cc1ccccc1)NC(=O)[C@@H](CCSC)NC(=O)[C@@H](N)Cc1ccc(O)cc1)C(=O)N[C@@H](CC(=O)O)C(N)=O
2. CSCC[C@@H](NC(=O)[C@H](CC(C)C)NC(=O)[C@H](Cc1ccccc1)NC(=O)[C@@H](CCSC)NC(=O)[C@@H](N)Cc1ccc(O)cc1)C(=O)N[C@@H](CC(=O)O)C(N)=O

stdout:
[6.16, 6.39]

* * *

# Target or system: Delta-type opioid receptor (Rattus norvegicus)
# Sequence (P33533 whole entry): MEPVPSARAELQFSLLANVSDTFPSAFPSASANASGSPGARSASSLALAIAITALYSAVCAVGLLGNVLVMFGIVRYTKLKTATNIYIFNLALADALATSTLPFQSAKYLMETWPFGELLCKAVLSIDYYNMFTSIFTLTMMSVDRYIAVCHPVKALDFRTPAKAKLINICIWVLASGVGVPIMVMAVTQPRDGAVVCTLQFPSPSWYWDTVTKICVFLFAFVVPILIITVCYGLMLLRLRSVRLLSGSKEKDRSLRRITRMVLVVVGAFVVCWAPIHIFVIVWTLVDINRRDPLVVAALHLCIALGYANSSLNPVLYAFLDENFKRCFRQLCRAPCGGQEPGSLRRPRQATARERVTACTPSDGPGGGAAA
# Measurement description: Inhibition of [3H]DPDPE binding to Opioid receptor delta 1
Would you kindly list Ki for each of these molecules?

Given smiles	Endpoint	Measured value
CSCC[C@@H](NC(=O)[C@H](CC(C)C)NC(=O)[C@H](Cc1ccccc1)NC(=O)[C@@H](CCSC)NC(=O)[C@@H](N)Cc1ccc(O)cc1)C(=O)N[C@@H](CC(=O)O)C(N)=O	Ki	25.8 nM

Answer for every listed entry: what is its Ki? The entries follow.
1. CSCC[C@H](NC(=O)[C@H](CC(C)C)NC(=O)[C@H](Cc1ccccc1)NC(=O)[C@@H](CCSC)NC(=O)[C@H](N)Cc1ccc(O)cc1)C(=O)N[C@@H](CC(=O)O)C(N)=O
2. CSCC[C@@H](NC(=O)[C@H](CC(C)C)NC(=O)[C@H](Cc1c[nH]cn1)NC(=O)[C@H](Cc1ccccc1)NC(=O)[C@@H](CCSC)NC(=O)[C@@H](N)Cc1ccc(O)cc1)C(=O)N[C@@H](CC(=O)O)C(N)=O
3. CSCC[C@H](NC(=O)[C@H](CC(C)C)NC(=O)[C@@H](Cc1ccccc1)NC(=O)[C@@H](CCSC)NC(=O)[C@@H](N)Cc1ccc(O)cc1)C(=O)N[C@@H](CC(=O)O)C(N)=O
4. CSCC[C@H](NC(=O)[C@@H](CC(C)C)NC(=O)[C@H](Cc1c[nH]cn1)NC(=O)[C@H](Cc1ccccc1)NC(=O)[C@@H](CCSC)NC(=O)[C@@H](N)Cc1ccc(O)cc1)C(=O)N[C@@H](CC(=O)O)C(N)=O

stdout:
["477 nM", "0.96 nM", "742 nM", "58.5 nM"]
